Biological target: μ-opioid receptor (Homo sapiens (Human), UniProt P35372)
Assay: μ-opioid receptor [35S]GTPγS functional assay (U-2 OS)
Assay type: biochemical
Details: U2OS; GTPγS; relative to DAMGO
Measured Emax of individual entries
Supply the numeric figure in %, leaving out any unit text.

COc1ccc2c(c1)[C@]13CCN(CC4CC4)[C@H](C2)[C@]1(O)CC1=CC(=O)NC1C3 (some centres unmarked)	49
COc1ccc2c(c1)[C@]13CCN(C)[C@H](C2)[C@]1(O)CC1=CC(=O)N[C@H]1C3	103
COc1ccc2c(c1)[C@]13CCN(CC4CC4)[C@H](C2)[C@]1(O)C[C@H]1CC(=O)N(CC(C)C)[C@H]1C3	55

IN: Item: COc1ccc2c(c1)[C@]13CCN(CC4CC4)[C@H](C2)[C@]1(O)C[C@H]1CC(=O)N[C@H]1C3 Test system: μ-opioid receptor (Homo sapiens (Human), UniProt P35372) Read-out: Emax Value: ?
OUT: 81.7

IN: Item: O=C1C=C2C[C@@]3(O)[C@H]4Cc5ccc(O)cc5[C@@]3(CCN4CC3CC3)CC2N1 (some centres unmarked) Test system: μ-opioid receptor (Homo sapiens (Human), UniProt P35372) Read-out: Emax Value: ?
OUT: 19.5

Source: patent US10435406B2
